Recorded kon by entry
# study.target: T1, human Proprotein Convertase Subtilisin-like/Kexin type 9 (human, UniProt Q8NBP7 31-692, limits assumed)
# T1 construct: Biotinylated in the ELISAs; unlabelled analyte in BLI and SPR; also called human PCSK9; PCSK9
# T1 sequence (Q8NBP7 31-692 limits assumed): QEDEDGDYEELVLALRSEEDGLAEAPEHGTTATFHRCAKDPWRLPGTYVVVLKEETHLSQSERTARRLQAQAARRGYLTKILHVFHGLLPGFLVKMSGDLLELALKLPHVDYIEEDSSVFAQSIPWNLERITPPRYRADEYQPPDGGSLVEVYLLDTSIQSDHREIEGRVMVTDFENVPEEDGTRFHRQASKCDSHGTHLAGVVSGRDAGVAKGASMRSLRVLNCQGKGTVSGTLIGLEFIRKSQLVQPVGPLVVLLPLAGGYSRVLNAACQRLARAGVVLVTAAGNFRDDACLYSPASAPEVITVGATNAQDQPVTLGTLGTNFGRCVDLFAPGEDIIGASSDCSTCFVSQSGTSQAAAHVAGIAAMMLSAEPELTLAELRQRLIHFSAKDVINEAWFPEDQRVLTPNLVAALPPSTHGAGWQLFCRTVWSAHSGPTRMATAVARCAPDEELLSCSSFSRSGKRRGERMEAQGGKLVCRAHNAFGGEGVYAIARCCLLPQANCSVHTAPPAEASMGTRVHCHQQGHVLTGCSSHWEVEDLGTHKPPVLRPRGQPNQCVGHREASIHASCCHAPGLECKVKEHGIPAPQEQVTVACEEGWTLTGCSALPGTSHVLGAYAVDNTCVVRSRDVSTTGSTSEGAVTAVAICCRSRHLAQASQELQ
# assay.overview: BLI (Octet QK), biotinylated antibody on streptavidin sensors, human PCSK9 in solution, 1:1 fit
Record the value in M⁻¹ s⁻¹, omitting the unit from your answer.

Solved entries (count: 3):
{"binder": "Ab10 (antibody, human IgG1, kappa, N297A, V domains shown, also called antibody Ab10) VH: QEQLEESGGDLVKPEGSLTLTCTASGFSFSSSYWICWVRQAPGKGLEWIACIRAGGGNYYANWAKGRFTISRTSSTTVTLQMTSLTAADTATYFCASDINDGWLGQFNLWGPGTLVTVSS VL: NIVMTQTPASVEAAVGGTVTIKCQASQSISNYLAWYQQKPGQPPKLLIYRTSTLASGVPSRFKGSGSGTQFTLTISDLECADAATYYCQSYYSVTTVAYGNTFGGGTEVVVKR", "kon, M⁻¹ s⁻¹": 75300}
{"binder": "Ab8 (antibody, human IgG1, kappa, N297A, V domains shown, also called antibody Ab8) VH: QEQLVESGGGLVQPEGSLTLTCTASGFSFTSDYYMCWVRQAPGKGLEWIGCISTGDGSTYYASWAKGRFTISKPSSTTVTLQMTRLTAADTATYFCARDRYYSYAYGAYVYASDLWGPGTLVTVSS VL: DIVMTQTPASVSEPVGGTVTINCQASESIRNYLSWYQQKPGQRPKLLIYGASTLASGVPSRFKGSGSGTDFTLTISDLECADAATYYCQSNYGISSRSYVNGFGGGTEVVVKR", "kon, M⁻¹ s⁻¹": 77000}
{"binder": "Ab15 (antibody, human IgG1, kappa, N297A, V domains shown, also called antibody Ab15) VH: QEQLEESGGDLVKPEGSLTLTCTASGFSFSSSYWICWVRQAPGKGLEWIACIDAGNSGSTYYASWAKGRFTISKASSTTVTLQMTSLTAADTATYFCASDLNDGWLGQFNLWGPGTLVTVSS VL: NIVMTQTPSPVSGAVGGTVTIKCQASQSISDYLAWYQQKPGQPPKLLIYRASTLASGVPSRFRGSGSGTEYTLTITDLECADAATYYCQSYYSVTTNTYGNTFGGGTEVVVKR", "kon, M⁻¹ s⁻¹": 69200}

Please turn your attention to the following entry.
Quick check: kon of Ab1 (antibody, human IgG1, kappa, N297A, V domains shown, also called antibody Ab1) VH: QSVEESGGRLVTPGTPLTLTCTVSGFSLSSYWMTWVRQAPGKGLEYIGIISSSGSTYYATWAKGRFTISKTSSTTVDLEITSPTTEDTATYFCARDSAFSSGLEFNIWGPGTLVTVSS VL: AYDLTQTPASVEVAVGGTVTIKCQASQSVYSNWLSWYQQKPGQPPKLLIYDASDLASGVPSRFKGSGSGTQFTLTISGVQCDDAATYYCQQGQSSSDIDNTFGGGTEVVVKR ?
162000
